- Test system: HAL-01
- ASSAY COMMENT: selective drug sensitivity score (sDSS, relative to normal bone marrow) (sDSS (score)); higher = more potent and effective on the cell line relative to normal bone marrow cells;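 note: ALL cell lines in 384-well plates, five doses spanning 10,000-fold, each plate scaled between vehicle and 100 µmol/L benzalkonium chloride controls, sDSS an adapted area-under-curve metric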
- EXPERIMENTAL SETUP: 72 h
TEST READOUT: selective drug sensitivity score

Q) Look up selective drug sensitivity score: CN(C)C1CCN(C(=O)c2ccc(NC(=O)Nc3ccc(-c4nc(N5CCOCC5)nc(N5CCOCC5)n4)cc3)cc2)CC1 [Gedatolisib] (top concentration 1000 nM)
A) -4.54

Q) Look up selective drug sensitivity score: CO[C@@H]1[C@H](N(C)C(=O)c2ccccc2)C[C@H]2O[C@]1(C)n1c3ccccc3c3c4c(c5c6ccccc6n2c5c31)C(=O)NC4 [Midostaurin] (top concentration 10000 nM)
A) 3.06

Q) Look up selective drug sensitivity score: COc1cc([C@@H]2c3cc4c(cc3[C@@H](O[C@@H]3O[C@@H]5CO[C@@H](C)O[C@H]5[C@H](O)[C@H]3O)[C@H]3COC(=O)[C@H]23)OCO4)cc(OC)c1O [Etoposide] (top concentration 10000 nM)
A) 5.14

Q) Look up selective drug sensitivity score: O=C(O)c1ccc2c(c1)nc(Nc1cccc(Cl)c1)c1ccncc12 [Silmitasertib] (top concentration 10000 nM)
A) 3.8

---

- Tested on: TMD5
- ASSAY COMMENT: selective drug sensitivity score (sDSS, relative to normal bone marrow) (sDSS (score)); higher = more potent and effective on the cell line relative to normal bone marrow cells
- EXPERIMENTAL SETUP: 72 h
Exercise: state measured selective drug sensitivity score for each of the molecules provided.

Q) Query selective drug sensitivity score on TMD5 for Cc1ncc(Cl)cc1NCc1ccc(C(=O)N[C@@H](CC2CCCC2)C(=O)NC2CC2)s1 (top concentration 5000 nM)
A) -0.94

Q) Query selective drug sensitivity score on TMD5 for CN1C(=O)N[C@H](Cc2c[nH]c3c(Cl)cccc23)C1=O [Necrostatin_2] (top concentration 10000 nM)
A) -0.08

Q) Query selective drug sensitivity score on TMD5 for CN(C)C1CCN(C(=O)c2ccc(NC(=O)Nc3ccc(-c4nc(N5CCOCC5)nc(N5CCOCC5)n4)cc3)cc2)CC1 [Gedatolisib] (top concentration 1000 nM)
A) 0.66

Q) Query selective drug sensitivity score on TMD5 for CC(O)(CS(=O)(=O)c1ccc(F)cc1)C(=O)Nc1ccc(C#N)c(C(F)(F)F)c1 (configuration not stated) [Bicalutamide] (top concentration 10000 nM)
A) -0.88

Q) Query selective drug sensitivity score on TMD5 for COc1cc2c(Nc3ccc(Cl)c(Cl)c3F)ncnc2cc1OC[C@@H]1C[C@@H]2CN(C)C[C@@H]2C1 [Tesevatinib] (top concentration 1000 nM)
A) 3.24

Q) Query selective drug sensitivity score on TMD5 for O=C(Nc1ccc2[nH]nc(-c3ccncc3)c2c1)[C@@H]1CCN(CC(=O)N2CCN(c3ccc(-c4ncccn4)cc3)CC2)C1 (top concentration 10000 nM)
A) -0.34

Q) Query selective drug sensitivity score on TMD5 for Cc1cc2c(F)c(Oc3ncnn4cc(OC[C@@H](C)O)c(C)c34)ccc2[nH]1 [Brivanib] (top concentration 1000 nM)
A) -0.04

Q) Query selective drug sensitivity score on TMD5 for COCCNCc1ccc(-c2cc3nccc(Oc4ccc(NC(=O)C5(C(=O)Nc6ccc(F)cc6)CC5)cc4F)c3s2)nc1 [Sitravatinib] (top concentration 2500 nM)
A) 11

Q) Query selective drug sensitivity score on TMD5 for Nc1ccccc1NC(=O)c1ccc(CNC(=O)OCc2cccnc2)cc1 [Entinostat] (top concentration 10000 nM)
A) 5.38

Q) Query selective drug sensitivity score on TMD5 for COc1cccc2c1C(=O)c1c(O)c3c(c(O)c1C2=O)C[C@@](O)(/C(CO)=N/NC(=O)CCCCCN1C(=O)C=CC1=O)C[C@@H]3O[C@H]1C[C@H](N)[C@H](O)[C@H](C)O1 [Aldoxorubicin] (top concentration 1000 nM)
A) 0.34

Q) Query selective drug sensitivity score on TMD5 for COc1cc(CCc2cc(NC(=O)c3ccc(N4CC(C)NC(C)C4)cc3)n[nH]2)cc(OC)c1 (configuration not stated) [AZD4547] (top concentration 1000 nM)
A) -0.14

Q) Query selective drug sensitivity score on TMD5 for COc1cc(Nc2ncc3c(n2)-c2ccc(Cl)cc2C(c2c(F)cccc2OC)=NC3)ccc1C(=O)O [Alisertib] (top concentration 10000 nM)
A) 11
